Test system: Salmonella enteritidis
Assay: Antimicrobial activity against Salmonella enterica subsp. enterica serovar Enteritidis assessed as increase in microbial growth inhibition
Assay type: functional
*1 amine or outer side, *2 acyl side, *3 side chain or, on linkers, in order; H or OH if unused. Where a SMILES comes first, the peptide text is derived from it. [ ]: non-standard residue; d: D form. X1 = Cn1c(=N)ccn([C@@H]2S[C@H]([C@@H](O)[C@@H](N[*:1])C(=O)[*:2])[C@H](O)[C@H]2O)c1=O; Orn(N5-OH,N5-Ac) = CC(=O)N(O)CCC[C@H](N)C(=O)O
# Lookup of reported MIC keyed by entry
Answer with the number, then the unit.

COMPOUND | SYSTEM | MIC
C[C@@H](O)[C@H]1C(=O)N2C(C(=O)O)=C(S[C@H]3C[C@@H](C(=O)N(C)C)N(C(=O)CCCc4cn(CCOCCOCCOCCNC(=O)c5cc(O)c(O)c(C(=O)N[C@H]6COC(=O)[C@@H](NC(=O)c7cc([C@@H]8O[C@H](CO)[C@@H](O)[C@H](O)[C@H]8O)cc(O)c7O)COC(=O)[C@@H](NC(=O)c7cc([C@@H]8O[C@H](CO)[C@@H](O)[C@H](O)[C@H]8O)cc(O)c7O)COC6=O)c5)nn4)C3)[C@H](C)[C@H]12 | Salmonella enteritidis | 0.01 µM
CC(=O)N(O)CCC[C@H](NC(=O)[C@H](CCCN(O)C(C)=O)NC(=O)[C@@H](N)CCCN(O)C(C)=O)C(=O)N[C@@H](CO)C(=O)N[C@@H](C(=O)O)[C@H](O)[C@H]1S[C@@H](n2ccc(=N)n(C)c2=O)[C@H](O)[C@H]1O (H-[Orn(N5-OH,N5-Ac)][Orn(N5-OH,N5-Ac)][Orn(N5-OH,N5-Ac)]S[X1]-OH) | Salmonella enteritidis | 0.04 µM
C[C@@H](O)[C@H]1C(=O)N2C(C(=O)O)=C(S[C@H]3C[C@@H](C(=O)N(C)C)N(C(=O)CCCc4cn(CCOCCOCCOCCNC(=O)c5cc(O)c(O)c(C(=O)N[C@H]6COC(=O)[C@@H](NC(=O)c7cccc(O)c7O)COC(=O)[C@@H](NC(=O)c7cccc(O)c7O)COC6=O)c5)nn4)C3)[C@H](C)[C@H]12 | Salmonella enteritidis | 0.01 µM

Switching to the query record.
## Task MIC lookup needed for CC1=C(C(=O)O)N2C(=O)[C@@H](NC(=O)[C@H](NC(=O)CCCc3cn(CCOCCOCCOCCNC(=O)c4cc(O)c(O)c(C(=O)N[C@H]5COC(=O)[C@@H](NC(=O)c6cc([C@@H]7O[C@H](CO)[C@@H](O)[C@H](O)[C@H]7O)cc(O)c6O)COC(=O)[C@@H](NC(=O)c6cc([C@@H]7O[C@H](CO)[C@@H](O)[C@H](O)[C@H]7O)cc(O)c6O)COC5=O)c4)nn3)c3ccccc3)[C@H]2SC1 , thanks.
## Result 0.01 µM
